Target: HLA-B*07:02
Assay: IEDB peptide-MHC binding, purified MHC/direct/fluorescence; filed as Kd, often an IC50 or EC50 that approximates it; bounds were set here for any values at or beyond the usual limits of such assays
Conditions: source organism: Mycobacterium tuberculosis str. Haarlem
Reported Property: Kd

{"columns": ["Polymer Sequence", "Readout Value"],
 "data": [
  ["GPGEVSAAM", "146 nM"],
  ["FHARFVQAL", "≥ 20000 nM"]
]}

====

Target: HLA-B*27:03
Test: IEDB peptide-MHC binding, purified MHC/competitive/fluorescence; filed as Kd, often an IC50 or EC50 that approximates it; bounds were set here for any values at or beyond the usual limits of such assays
Details: source organism: Salmonella enterica subsp. enterica serovar Choleraesuis str. SC-B67
pKd: −log10 of the molar value.
Reported Property: pKd

{"columns": ["Polymer Sequence", "Reported Property", "Readout Value"],
 "data": [
  ["GIALAVPCV", "pKd", "≤ 4.70"]
]}

Ref: the Immune Epitope Database (IEDB)
